This collection of values is drawn from patent US7473683B2.

# Test system: DNA Pol I (Klenow fragment, exo-)
# Assay summary: steady-state kinetics of single nucleotide insertions, thymidine analogues in the template
# Assay type: biochemical, E. coli
# Experimental conditions: insertion of dTTP opposite template base; relative to insertion of dATP opposite T
Reported metric: rel. efficiency

                                   molecule  reported_metric  value_observed
0      Cc1ccc(I)cc1I [I, 2,4-diiodotoluene]  rel. efficiency     1.4 × 10^−4
1  Cc1ccc(Cl)cc1Cl [L, 2,4-dichlorotoluene]  rel. efficiency     5.5 × 10^−4
2   Cc1ccc(Br)cc1Br [B, 2,4-dibromotoluene]  rel. efficiency     4.2 × 10^−4
3  Cc1c[nH]c(=O)[nH]c1=O [T, thymine, reference compound]  rel. efficiency     2.5 × 10^−5

###

# System: DNA Pol I (Klenow fragment, exo-)
# Assay summary: steady-state kinetics of single nucleotide insertions, thymidine analogues in the template
# Assay type: biochemical, E. coli
# Experimental conditions: Example 4: incorporating dATP opposite template thymidine analog
Measured Km by item
Reported metric: Km (µM)

>>> df
                                   compound  reported_metric  measurement_unit  value_observed
0  Cc1cc([C@H]2C[C@@H](O)[C@@H](CO)O2)cc(Cl)c1Cl               Km                µM              55
1  Cc1cc(Cl)cc([C@H]2C[C@@H](O)[C@@H](CO)O2)c1               Km                µM            51.9
2  Cc1c[nH]c(=O)[nH]c1=O [T, thymine, reference compound]               Km                µM             2.6
3  Cc1cc([C@H]2C[C@@H](O)[C@@H](CO)O2)ccc1Cl               Km                µM            31.5

###

# Test system: DNA Pol I (Klenow fragment, exo-)
# Assay summary: steady-state kinetics of single nucleotide insertions, thymidine analogues in the template
# Type: biochemical, E. coli
# Experimental conditions: insertion of dCTP opposite template base; 37° C.
Reported metric: Km

In [3]: df
Out[3]:
                                   compound  value_observed
0                           Cc1ccc(Cl)cc1Cl           25 µM
1                             Cc1ccc(I)cc1I           20 µM
2                           Cc1ccc(Br)cc1Br           79 µM
3  Cc1c[nH]c(=O)[nH]c1=O [T, thymine, reference compound]           46 µM

###

# Test system: DNA Pol I (Klenow fragment, exo-)
# Assay summary: steady-state kinetics of single nucleotide insertions, incoming nucleotide analogues (dNTP/dXTP)
# Type: biochemical, E. coli
# Experimental conditions: dNTP inserted opposite template base G; 37° C., 10 mM MgCl2, pH 7.5; normalized to lowest enzyme concentration
Checkbox rule: Vmax lower than 0.009 % · min^−1 = yes (1); Vmax not lower than 0.009 % · min^−1 = no (0).

>>> df
                                   compound  category
0  Cc1cccc(C2CC(O)C(COP(=O)(O)OP(=O)(O)OP(=O)(O)O)O2)c1 (stereo not drawn)   yes (1)
1  Cc1cc(C2CC(O)C(COP(=O)(O)OP(=O)(O)OP(=O)(O)O)O2)c(F)cc1F (stereo not drawn) [dFTP, reference compound]   yes (1)
2  Cc1cc(C2CC(O)C(COP(=O)(O)OP(=O)(O)OP(=O)(O)O)O2)c(Br)cc1Br (stereo not drawn)    no (0)
3  Cc1cc(C2CC(O)C(COP(=O)(O)OP(=O)(O)OP(=O)(O)O)O2)c(Cl)cc1Cl (stereo not drawn)    no (0)
4  Cc1cc(C2CC(O)C(COP(=O)(O)OP(=O)(O)OP(=O)(O)O)O2)c(I)cc1I (stereo not drawn)   yes (1)
5  Cc1cn([C@H]2C[C@H](O)[C@@H](COP(=O)(O)OP(=O)(O)OP(=O)(O)O)O2)c(=O)[nH]c1=O [dTTP, reference compound]    no (0)

###

# System: DNA Pol I (Klenow fragment, exo-)
# Assay summary: steady-state kinetics of single nucleotide insertions, incoming nucleotide analogues (dNTP/dXTP)
# Type: biochemical, E. coli
# Experimental conditions: dNTP inserted opposite template base C; relative to insertion of dTTP opposite A
Documented rel. efficiency across a set of compounds
Reported metric: rel. efficiency

>>> df
                                   compound  value_observed
0  Cc1cc(C2CC(O)C(COP(=O)(O)OP(=O)(O)OP(=O)(O)O)O2)c(F)cc1F (stereo not drawn) [dFTP, reference compound]     3.8 × 10^−6
1  Cc1cc(C2CC(O)C(COP(=O)(O)OP(=O)(O)OP(=O)(O)O)O2)c(Cl)cc1Cl (stereo not drawn) [dLTP]     1.9 × 10^−5
2  Cc1cc(C2CC(O)C(COP(=O)(O)OP(=O)(O)OP(=O)(O)O)O2)c(I)cc1I (stereo not drawn) [dITP]     6.3 × 10^−6
3  Cc1cccc(C2CC(O)C(COP(=O)(O)OP(=O)(O)OP(=O)(O)O)O2)c1 (stereo not drawn) [dHTP]     1.4 × 10^−6
4  Cc1cc(C2CC(O)C(COP(=O)(O)OP(=O)(O)OP(=O)(O)O)O2)c(Br)cc1Br (stereo not drawn) [dBTP]     1.4 × 10^−5
5  Cc1cn([C@H]2C[C@H](O)[C@@H](COP(=O)(O)OP(=O)(O)OP(=O)(O)O)O2)c(=O)[nH]c1=O [dTTP, reference compound]     6.3 × 10^−6

###

# Test system: self-complementary strands (5′-XCGCGCG)
# Assay summary: dangling end thermal denaturation studies (base stacking) with self-complementary strands
# Type: physicochemical
# Experimental conditions: dangling residue X in 5′-XCGCGCG
Item-by-item account of ΔS° (van't Hoff)
Reported metric: ΔS° (van't Hoff)

                                   molecule                                tested_on         value_observed
0   Cc1ccc(Br)cc1Br [B, 2,4-dibromotoluene]  self-complementary strands (5′-XCGCGCG)   −165 ± 7 cal/K · mol
1  Cc1c[nH]c(=O)[nH]c1=O [T, thymine, reference compound]  self-complementary strands (5′-XCGCGCG)  −146 ± 13 cal/K · mol
2      Cc1ccc(I)cc1I [I, 2,4-diiodotoluene]  self-complementary strands (5′-XCGCGCG)  −146 ± 14 cal/K · mol
